- Assayed system: T1, CRBN, Q96SW2;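 further: pooled lentiviral library of zinc finger degron-EGFP fusions in mCherry-positive Jurkat cells, FACS-sorted after compound exposure, with degron abundance counted by next-generation sequencing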
- T1 chain: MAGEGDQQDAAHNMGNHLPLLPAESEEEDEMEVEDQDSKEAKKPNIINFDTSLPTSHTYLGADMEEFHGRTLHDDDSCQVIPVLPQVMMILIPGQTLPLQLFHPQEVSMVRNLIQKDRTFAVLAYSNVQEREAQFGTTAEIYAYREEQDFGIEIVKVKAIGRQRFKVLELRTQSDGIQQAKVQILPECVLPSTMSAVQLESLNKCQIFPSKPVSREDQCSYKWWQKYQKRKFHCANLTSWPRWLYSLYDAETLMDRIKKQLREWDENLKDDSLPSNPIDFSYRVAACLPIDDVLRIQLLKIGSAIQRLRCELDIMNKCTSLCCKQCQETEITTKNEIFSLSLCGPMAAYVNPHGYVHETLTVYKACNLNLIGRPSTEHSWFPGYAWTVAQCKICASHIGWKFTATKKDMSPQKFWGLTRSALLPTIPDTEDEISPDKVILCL
- Method notes: log2 fold change of degron read counts, EGFP-low vs EGFP+ sorted cells (limma voom), compound-induced degradation; higher = more compound-induced degradation of the degron-EGFP fusion; degrons are variants of IKZF1/3 zinc finger 2; compound dose not given here
- Condition set: Jurkat; 18 h; compound: compound 19 (5-tert-butyl-thalidomide)
Over roughly 8,300 sequences, “log2 fold change of degron read counts, EGFP-low vs EGFP+ sorted cells (limma voom), compound-induced degradation” has its median near -1.1; the highest 2% begin near 3.2. This is one part of a sample in which the highest values are shown more often than they occur.
Quick list: log2 fold change of degron read counts per entry.
Write no unit; give the number alone.

Observe how each entry below is paired with its result.
Residues | log2 fold change of degron read counts
LACNQCGFLCTQKGNLLRHIKL [46L_47A_49N_50Q_52G_53F_54L_55C_67L_, Q9UKT9] | -1.52
FWCPVCGAPFTQKGNLLRHIKL [46F_47W_49P_50V_52G_53A_54P_55F_67L_, Q9UKT9] | 3.23
FYCNVCGAPFTQKGNLLRHIKL [46F_47Y_49N_50V_52G_53A_54P_55F_67L_, Q9UKT9] | 2.95
FYCPVCGAPFTQKGNLLRHIKL [46F_47Y_49P_50V_52G_53A_54P_55F_67L_, Q9UKT9] | 3.48
FECPVCGAPFTQKGNLLRHIKL [46F_47E_49P_50V_52G_53A_54P_55F_67L_, Q9UKT9] | 1.88

Can you share its log2 fold change of degron read counts? I mean this sequence: FNCPVCGAPFTQKGNLLRHIKL [46F_47N_49P_50V_52G_53A_54P_55F_67L_, Q9UKT9]
3.41

Same for FKCEVCGAQFTQKGNLLRHIKL [46F_47K_49E_50V_52G_53A_54Q_55F_67L_, Q9UKT9]
-0.0625
